Reported hCCL1 (100 nM) residual response, Protocol #2, mAb 0.4 µg/mL by item:
- system-under-test: human CCR8 (human, UniProt P51685 1-355)
- procedure-details: cell-based or functional assay
State just the number; it will be interpreted in %.

• 3-53 (antibody, V domains shown) VH: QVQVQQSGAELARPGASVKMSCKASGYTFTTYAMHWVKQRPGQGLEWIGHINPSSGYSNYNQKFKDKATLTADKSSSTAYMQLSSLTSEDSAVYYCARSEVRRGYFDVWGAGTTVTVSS VL: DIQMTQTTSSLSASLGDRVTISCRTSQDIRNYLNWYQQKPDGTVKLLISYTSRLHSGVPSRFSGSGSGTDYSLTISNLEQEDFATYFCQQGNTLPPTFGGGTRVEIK = 68

Report hCCL1 (100 nM) residual response, Protocol #2, mAb 0.4 µg/mL, nothing else, for this binder: 3-28 (antibody, V domains shown) VH: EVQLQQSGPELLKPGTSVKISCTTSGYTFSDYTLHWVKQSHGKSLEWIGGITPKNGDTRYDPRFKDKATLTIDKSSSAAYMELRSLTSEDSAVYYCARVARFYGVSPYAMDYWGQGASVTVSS VL: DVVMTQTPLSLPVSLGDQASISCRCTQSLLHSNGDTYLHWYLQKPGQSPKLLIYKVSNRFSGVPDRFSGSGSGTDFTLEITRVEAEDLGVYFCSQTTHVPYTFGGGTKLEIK
38

Tell me hCCL1 (100 nM) residual response, Protocol #2, mAb 0.4 µg/mL reported for 3-45 (antibody, V domains shown) VH: EVQLVETGGGLVQPKGSLKLSCAASGFTFNANAMNWVRQAPGKGLEWVARIRSKSNNYATYYADSVKDRFTISRDDSQSMLYLQMNNLKTEDTAMYYCVRGSDNYIFYAMDYWGQGTSVTVSS VL: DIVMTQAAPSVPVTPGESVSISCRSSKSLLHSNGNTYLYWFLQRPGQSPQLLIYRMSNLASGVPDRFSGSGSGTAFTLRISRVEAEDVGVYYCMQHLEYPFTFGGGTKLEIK
85
